Below, each entry is listed with its recorded pEC50.
- assayTarget: T1, human BDCA2 (human, UniProt Q8WTT0 1-213)
- T1 construct: whole, on cells; also called hBDCA2; Blood dendritic cell antigen 2
- T1 sequence (looked up): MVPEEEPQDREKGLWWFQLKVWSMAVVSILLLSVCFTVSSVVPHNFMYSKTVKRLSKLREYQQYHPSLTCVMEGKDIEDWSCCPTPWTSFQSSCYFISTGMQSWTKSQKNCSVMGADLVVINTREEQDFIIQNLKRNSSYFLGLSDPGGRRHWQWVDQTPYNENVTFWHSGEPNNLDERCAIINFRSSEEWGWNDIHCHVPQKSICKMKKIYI
- method: FACS, CHOK1-humanBDCA2 cells
pEC50: −log10 of the molar value.
quantityName: pEC50

binder	quantityName	numericValue
Hu033-04 (antibody, IgG1, V domains shown, Humanized IgG1; also called Hu033-04(BM0)) VH: EVQLVESGGGLVKPGGSLRLSCAASGFTFSSYGMSWVRQAPGKGLEWVSTISSGDSYTYYPDSVKGRFTISRDNAKNSLYLQMNSLRAEDTAVYYCARQIYYDYAYYFDFWGQGTTVTVSS VL: DIVMTQSPDSLAVSLGERATINCRASESVSFRTSHLMHWYQQKPGQPPKLLIYGASNLESGVPDRFSGSGSGTDFTLTISSLQAEDVAVYYCQQSIEDPPTFGGGTKVEIK	pEC50	9.21
Hu033-12 (antibody, IgG1, V domains shown, Humanized IgG1; also called Hu033-12(BM2)) VH: EVQLVESGGGLVKPGGSLRLSCAASGFTFRSYGMSWVRQAPGKRLEWVSTISSGDSYTYYPDSVKGRFTISRDNAKNSLYLQMNSLRAEDTAVYYCARQIYYDYAYYFDFWGQGTTVTVSS VL: DIVMTQSPDSLAVSLGERATINCRASESVSFRTSHLMHWYQQKPGQPPKLLIYGASNLESGVPDRFSGSGSGTDFTLTISSLQAEDVAVYYCQQSIEDPPTFGGGTKVEIK	pEC50	9.35
Hu033-02 (antibody, IgG1, V domains shown, Humanized IgG1; also called Hu033-02(BM2)) VH: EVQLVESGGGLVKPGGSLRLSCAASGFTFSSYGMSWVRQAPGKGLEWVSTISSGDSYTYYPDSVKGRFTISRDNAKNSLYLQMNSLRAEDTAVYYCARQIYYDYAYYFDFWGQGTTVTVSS VL: DIVLTQSPASLAVSPGQRATITCRASESVSFRTSHLMHWYQQKPGQPPKLLIYGASNLESGVPARFSGSGSETDFTLTINPVEAEDTANYYCQQSIEDPPTFGGGTKVEIK	pEC50	9.36
Hu033-08 (antibody, IgG1, V domains shown, Humanized IgG1; also called Hu033-08(BM2)) VH: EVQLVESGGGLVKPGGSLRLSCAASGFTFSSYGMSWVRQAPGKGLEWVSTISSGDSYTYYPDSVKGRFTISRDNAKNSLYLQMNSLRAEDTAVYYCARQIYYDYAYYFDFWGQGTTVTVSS VL: EIVLTQSPATLSLSPGERATLSCRASESVSFRTSHLMHWYQQKPGQAPRLLIYGASNLESGIPARFSGSGSETDFTLTISRLEPEDFAVYFCQQSIEDPPTFGGGTKVEIK	pEC50	9.21

Taken from patent US20250346673A1.
